# assayed system: Histone deacetylase 3 (Homo sapiens, UniProt O15379)
# Sequence (O15379 whole entry): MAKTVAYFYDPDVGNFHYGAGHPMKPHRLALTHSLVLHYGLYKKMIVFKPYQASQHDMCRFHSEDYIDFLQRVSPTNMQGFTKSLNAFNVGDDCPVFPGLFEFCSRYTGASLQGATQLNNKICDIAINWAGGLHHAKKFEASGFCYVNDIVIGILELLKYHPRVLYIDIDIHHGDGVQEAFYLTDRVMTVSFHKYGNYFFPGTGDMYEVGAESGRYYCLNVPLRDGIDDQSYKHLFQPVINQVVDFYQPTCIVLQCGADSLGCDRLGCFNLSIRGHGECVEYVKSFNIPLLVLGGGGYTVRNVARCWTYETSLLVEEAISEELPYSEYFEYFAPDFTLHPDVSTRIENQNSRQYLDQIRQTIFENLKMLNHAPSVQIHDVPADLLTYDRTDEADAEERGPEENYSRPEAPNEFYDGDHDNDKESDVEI
# protocol notes: Inhibition of recombinant human His-tagged HDAC3 expressed in baculovirus insect cells using Ac-Leu-Gly-Lys (Ac)-AMC as substrate preincubated for 5 mins followed by substrate addition and measured after 30 mins by fluorescence microtiter plate reader assay
Listed compounds paired with reported IC50

[
  {
    "molecular string": "COc1ccc(-c2ncc(C(=O)NCCCCCC(=O)NO)s2)c(OC)c1",
    "IC50": "12.4 µM"
  },
  {
    "molecular string": "CC(C)(C)OC(=O)Nc1ccc(-c2ncc(C(=O)NCCCCCCC(=O)NO)s2)cc1",
    "IC50": "5.88 µM"
  },
  {
    "molecular string": "COc1cc(OC)cc(-c2ncc(C(=O)NCCCCCCC(=O)NO)s2)c1",
    "IC50": "9.09 µM"
  },
  {
    "molecular string": "O=C(/C=C/c1cnc(-c2ccc(N3CCOCC3)cc2)s1)NO",
    "IC50": "> 10 µM"
  },
  {
    "molecular string": "CC(C)(C)OC(=O)Nc1ccc(-c2cc(C(=O)NCCCCCCC(=O)NO)no2)cc1",
    "IC50": "0.76 µM"
  },
  {
    "molecular string": "COc1ccccc1-c1ncc(C(=O)NCCCCCCC(=O)NO)s1",
    "IC50": "6.49 µM"
  },
  {
    "molecular string": "COc1ccc(-c2ncc(/C=C/C(=O)NO)s2)c(OC)c1OC",
    "IC50": "6.23 µM"
  },
  {
    "molecular string": "O=C(/C=C/c1cnc(-c2ccc3c(c2)OCCO3)s1)NO",
    "IC50": "> 10 µM"
  },
  {
    "molecular string": "COc1ccc(-c2ncc(C(=O)NCCCCC(=O)NO)s2)c(OC)c1",
    "IC50": "9.91 µM"
  },
  {
    "molecular string": "COc1ccc(-c2ncc(/C=C/C(=O)Nc3ccccc3N)s2)cc1",
    "IC50": "1.79 µM"
  },
  {
    "molecular string": "COc1cc(OC)cc(-c2ncc(/C=C/C(=O)NO)s2)c1",
    "IC50": "> 10 µM"
  }
]

* * *

# assayed system: Protein deacetylase HDAC6 (Homo sapiens, UniProt Q9UBN7)
# Sequence (Q9UBN7 whole entry): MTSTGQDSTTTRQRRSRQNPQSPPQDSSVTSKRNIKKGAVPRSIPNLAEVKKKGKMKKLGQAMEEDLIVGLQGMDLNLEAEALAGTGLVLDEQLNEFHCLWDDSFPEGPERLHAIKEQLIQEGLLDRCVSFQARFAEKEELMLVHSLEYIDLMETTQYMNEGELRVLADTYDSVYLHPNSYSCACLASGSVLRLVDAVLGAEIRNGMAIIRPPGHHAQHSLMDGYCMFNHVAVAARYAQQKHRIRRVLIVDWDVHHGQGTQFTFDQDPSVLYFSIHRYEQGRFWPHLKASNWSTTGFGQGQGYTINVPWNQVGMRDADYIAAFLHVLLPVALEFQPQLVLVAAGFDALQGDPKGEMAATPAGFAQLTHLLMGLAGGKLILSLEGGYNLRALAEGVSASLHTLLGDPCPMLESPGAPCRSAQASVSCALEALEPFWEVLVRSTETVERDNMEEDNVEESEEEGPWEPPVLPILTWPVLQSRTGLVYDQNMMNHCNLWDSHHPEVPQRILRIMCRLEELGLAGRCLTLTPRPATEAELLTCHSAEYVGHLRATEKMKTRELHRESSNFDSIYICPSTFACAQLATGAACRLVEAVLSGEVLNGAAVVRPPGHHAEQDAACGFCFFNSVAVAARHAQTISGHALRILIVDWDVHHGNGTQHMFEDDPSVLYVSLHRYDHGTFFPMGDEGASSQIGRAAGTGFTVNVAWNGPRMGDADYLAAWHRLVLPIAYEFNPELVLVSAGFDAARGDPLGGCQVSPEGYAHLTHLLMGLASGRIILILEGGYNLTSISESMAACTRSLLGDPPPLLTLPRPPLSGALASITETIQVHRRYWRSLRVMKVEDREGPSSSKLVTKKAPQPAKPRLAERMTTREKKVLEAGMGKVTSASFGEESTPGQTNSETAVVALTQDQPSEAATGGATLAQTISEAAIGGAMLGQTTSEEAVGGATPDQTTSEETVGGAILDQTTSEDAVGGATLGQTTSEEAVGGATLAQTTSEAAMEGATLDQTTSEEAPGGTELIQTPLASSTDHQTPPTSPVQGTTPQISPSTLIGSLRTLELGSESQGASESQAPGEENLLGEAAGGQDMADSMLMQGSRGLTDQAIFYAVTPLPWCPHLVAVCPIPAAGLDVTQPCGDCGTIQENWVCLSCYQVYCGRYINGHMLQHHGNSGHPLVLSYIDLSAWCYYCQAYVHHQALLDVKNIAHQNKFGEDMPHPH
# protocol notes: Inhibition of recombinant human N-terminal GST tagged HDAC6 expressed in baculovirus infected Sf9 insect cells using Ac-Leu-Gly-Lys (Ac)-AMC as substrate preincubated for 5 mins followed by substrate addition and measured after 30 mins by fluorescence microtiter plate reader assay
pIC50: −log10 of the molar value.
Outcome: Yes for pIC50 of at least 6; No for anything lower.

[
  {
    "molecular string": "COc1ccc(-c2ncc(/C=C/C(=O)Nc3ccccc3N)s2)cc1OC",
    "cat": "No"
  },
  {
    "molecular string": "COc1ccc(-c2ncc(C(=O)NCCCCCC(=O)NO)s2)c(OC)c1",
    "cat": "Yes"
  },
  {
    "molecular string": "COc1cccc(-c2ncc(C(=O)NCCCCCCC(=O)NO)s2)c1",
    "cat": "Yes"
  },
  {
    "molecular string": "COc1ccc(-c2ncc(/C=C/C(=O)Nc3ccccc3N)s2)c(OC)c1OC",
    "cat": "No"
  },
  {
    "molecular string": "COc1ccc(-c2ncc(C(=O)NCCCCC(=O)NO)s2)c(OC)c1",
    "cat": "Yes"
  },
  {
    "molecular string": "COc1ccc(-c2ncc(/C=C/C(=O)Nc3ccccc3N)s2)cc1",
    "cat": "No"
  },
  {
    "molecular string": "Nc1ccccc1NC(=O)/C=C/c1cnc(-c2ccc3cc[nH]c3c2)s1",
    "cat": "No"
  },
  {
    "molecular string": "COc1ccc(-c2ncc(C(=O)NCCCCCCC(=O)NO)[nH]2)c(OC)c1",
    "cat": "Yes"
  },
  {
    "molecular string": "CC(C)(C)OC(=O)Nc1ccc(-c2ncc(C(=O)NCCCCCCC(=O)NO)s2)cc1",
    "cat": "Yes"
  },
  {
    "molecular string": "COc1cc(-c2ncc(/C=C/C(=O)NO)s2)cc(OC)c1OC",
    "cat": "No"
  },
  {
    "molecular string": "COc1ccc(-c2ncc(C(=O)NCCCCCCC(=O)NO)s2)c(OC)c1",
    "cat": "Yes"
  },
  {
    "molecular string": "COc1ccccc1-c1ncc(C(=O)NCCCCCCC(=O)NO)s1",
    "cat": "Yes"
  },
  {
    "molecular string": "Cc1ccc(-c2ncc(/C=C/C(=O)Nc3ccccc3N)s2)cc1",
    "cat": "No"
  },
  {
    "molecular string": "COc1cc(-c2ncc(/C=C/C(=O)Nc3ccccc3N)s2)cc(OC)c1OC",
    "cat": "No"
  },
  {
    "molecular string": "COc1ccc(-c2ncc(C(=O)NCCCCCCC(=O)NO)s2)cc1",
    "cat": "Yes"
  }
]
